A collection of compounds and their measured log10 EC50
Tested on: TN (1a)
assay.procedure: Concentration-response treatment of infected Huh7.5 cells, TN (1a) control virus
conditions.used: Hepatitis C virus, Huh7.5, read-out: EC50, nM (95% CI), TN (1a)
Hi team, quick reminder: these entries are log10 of EC50 (nM).

[
  {
    "compound": "COc1c(-c2ccc3cc(NS(C)(=O)=O)ccc3c2)cc(-n2ccc(=O)[nH]c2=O)cc1C(C)(C)C [Dasabuvir]",
    "experimental.result": 1.55
  }
]

Tell me the measured log10 EC50 of COC(=O)N[C@H](C(=O)N1CCC[C@H]1c1nc(-c2ccc(-c3ccc(-c4c[nH]c([C@@H]5CCCN5C(=O)[C@@H](NC(=O)OC)C(C)C)n4)cc3)cc2)c[nH]1)C(C)C [Daclatasvir] , please. -1.72

Tell me the measured log10 EC50 of COC(=O)N[C@H](C(=O)N1CC2(CC2)C[C@H]1c1nc(-c2ccc3c(c2)C(F)(F)c2cc(-c4ccc5[nH]c([C@@H]6[C@H]7CC[C@H](C7)N6C(=O)[C@@H](NC(=O)OC)C(C)C)nc5c4)ccc2-3)c[nH]1)C(C)C [Ledipasvir] , please. -2.30

Tell me the measured log10 EC50 of COC(=O)N[C@H](C(=O)N1CCC[C@H]1C(=O)Nc1ccc([C@@H]2CC[C@@H](c3ccc(NC(=O)[C@@H]4CCCN4C(=O)[C@@H](NC(=O)OC)C(C)C)cc3)N2c2ccc(C(C)(C)C)cc2)cc1)C(C)C [Ombitasvir] , please. -2.70

Tell me the measured log10 EC50 of COC[C@H]1C[C@@H](c2nc(-c3ccc4c(c3)COc3cc5c(ccc6nc([C@@H]7CC[C@H](C)N7C(=O)[C@@H](NC(=O)OC)C(C)C)[nH]c65)cc3-4)c[nH]2)N(C(=O)[C@H](NC(=O)OC)c2ccccc2)C1 [Velpatasvir] , please. -2.30

Tell me the measured log10 EC50 of COc1ccc2c(c1)[C@@H]1C[C@]1(C(=O)N1[C@@H]3CC[C@H]1CN(C)C3)Cn1c-2c(C2CCCCC2)c2ccc(C(=O)NS(=O)(=O)N(C)C)cc21 [Beclabuvir] , please. 0.72

Tell me the measured log10 EC50 of CC(C)OC(=O)[C@H](C)N[P@](=O)(OC[C@H]1O[C@@H](n2ccc(=O)[nH]c2=O)[C@](C)(F)[C@@H]1O)Oc1ccccc1 [Sofosbuvir] , please. 2.68

Tell me the measured log10 EC50 of CNC(=O)c1c(-c2ccc(F)cc2)oc2cc(N(CCO)S(C)(=O)=O)c(C3CC3)cc12 [HCV-796] , please. 1.41

Tell me the measured log10 EC50 of CC(C)OC(=O)[C@@H](C)N[P@@](=O)(OC[C@H]1O[C@@H](n2ccc(=O)[nH]c2=O)[C@](C)(Cl)[C@@H]1O)Oc1ccccc1 [MK-3682] , please. 2.59

Tell me the measured log10 EC50 of COC(=O)N[C@H](C(=O)N1CCC[C@H]1c1nc2cc([C@H]3CC[C@H](c4cc5nc([C@@H]6CCCN6C(=O)[C@@H](NC(=O)OC)[C@@H](C)OC)[nH]c5cc4F)N3c3cc(F)c(N4CCC(c5ccc(F)cc5)CC4)c(F)c3)c(F)cc2[nH]1)[C@@H](C)OC [Pibrentasvir] , please. -2.40

Tell me the measured log10 EC50 of CC(C)(C)C#Cc1cc(N(C(=O)[C@H]2CC[C@H](C)CC2)[C@H]2CC[C@H](O)CC2)c(C(=O)O)s1 [Lomibuvir] , please. 1.44

Tell me the measured log10 EC50 of COC(=O)N[C@H](C(=O)N1CCC[C@H]1c1nc(-c2ccc3c(c2)O[C@@H](c2ccccc2)n2c-3cc3cc(-c4c[nH]c([C@@H]5CCCN5C(=O)[C@@H](NC(=O)OC)C(C)C)n4)ccc32)c[nH]1)C(C)C [Elbasvir] , please. -2.22
